The measured values listed here are drawn from patent US4317775A.

# METHOD_DESCRIPTION: in vivo
# ASSAY_SETUP: mouse, ip
Counter-ions that a name gives are not always drawn.
REPORTED_METRIC: LD50

# COMPOUND, LD50
measured = [
    ("CC1(C)S[C@@H]2[C@H](NC(=O)[C@H](NC3CCCO3)c3ccc(O)cc3)C(=O)N2[C@H]1C(=O)O (relative stereo) [Compound I, sodium salt]", "3220 mg/kg"),
]

Entry CC1(C)S[C@@H]2[C@H](NC(=O)[C@H](NC3CCCS3)c3ccc(O)cc3)C(=O)N2[C@H]1C(=O)O (relative stereo) [Compound III, sodium salt] has what LD50?
668 mg/kg

Entry CC1(C)S[C@@H]2[C@H](NC(=O)[C@@H](c3ccc(O)cc3)N(C3CCCCO3)C3CCCCO3)C(=O)N2[C@H]1C(=O)O (relative stereo) [Compound II, sodium salt] has what LD50?
6310 mg/kg

Entry CCC1CC(F)C(N(C2OC(CC)CC2F)[C@@H](C(=O)N[C@@H]2C(=O)N3[C@@H]2SC(C)(C)[C@@H]3C(=O)O)c2ccc(O)cc2)O1 (relative stereo) [Compound IV, sodium salt] has what LD50?
3520 mg/kg

----------
# METHOD_DESCRIPTION: Stability in aqueous solution (percent retention)
# Assay type: physicochemical
# ASSAY_SETUP: 5% dextrose in water, 33 mg/ml, 5° C., 24 hrs
Structures can show the parent of a compound that is named as a salt.
REPORTED_METRIC: remaining at 24 h (%)
Express the result in % but write the number alone.

Entry CC1(C)S[C@@H]2[C@H](NC(=O)[C@@H](c3ccc(O)cc3)N(C3CCCCO3)C3CCCCO3)C(=O)N2[C@H]1C(=O)O (relative stereo) [Compound II, sodium salt] has what remaining at 24 h?
94

----------
# METHOD_DESCRIPTION: Stability in aqueous solution (percent retention)
# Type: physicochemical
# ASSAY_SETUP: 0.9% saline, 34. mg/ml, RT, 6 hrs
Structures can show the parent of a compound that is named as a salt.
REPORTED_METRIC: remaining at 6 h (%)
Express the result in % but write the number alone.

Entry CC1(C)S[C@@H]2[C@H](NC(=O)[C@@H](c3ccc(O)cc3)N(C3CCCCO3)C3CCCCO3)C(=O)N2[C@H]1C(=O)O (relative stereo) [Compound II, sodium salt] has what remaining at 6 h?
97

----------
# System: Klebsiella pneumoniae
# METHOD_DESCRIPTION: In vitro activity (MIC/MBC), Klebsiella pneumoniae
# Format: cell-based
# ASSAY_SETUP: MBC, read-out: Minimum Inhibitory Concentration (MBC)
Where a name gives a salt, the structure may show the parent alone.
Reported MBC by item:
Express the result in µg/mL but write the number alone.

A selection of reference data follows.
# COMPOUND, REPORTED_METRIC, SCALE_UNIT, RECORDED_NUMBER
records = [
    ("CCC1CC(F)C(N(C2OC(CC)CC2F)[C@@H](C(=O)N[C@@H]2C(=O)N3[C@@H]2SC(C)(C)[C@@H]3C(=O)O)c2ccc(O)cc2)O1 (relative stereo) [Compound IV, sodium salt]", "MBC", "µg/mL", 0.437),
    ("CC1(C)S[C@@H]2[C@H](NC(=O)[C@@H](c3ccc(O)cc3)N(C3CCCCO3)C3CCCCO3)C(=O)N2[C@H]1C(=O)O (relative stereo) [Compound II, sodium salt]", "MBC", "µg/mL", 0.98),
    ("CC1(C)S[C@@H]2[C@H](NC(=O)[C@H](NC3CCCO3)c3ccc(O)cc3)C(=O)N2[C@H]1C(=O)O (relative stereo) [Compound I, sodium salt]", "MBC", "µg/mL", 0.71),
]

Would you kindly look at the next entry?
Entry CC1(C)S[C@@H]2[C@H](NC(=O)[C@H](NC3CCCS3)c3ccc(O)cc3)C(=O)N2[C@H]1C(=O)O (relative stereo) [Compound III, sodium salt] has what MBC?
1.11

----------
# METHOD_DESCRIPTION: Stability in aqueous solution (percent retention)
# Format: physicochemical
# ASSAY_SETUP: 0.9% saline, 29.1 mg/ml, RT, 6 hrs
Structures can show the parent of a compound that is named as a salt.
REPORTED_METRIC: remaining at 6 h (%)
Express the result in % but write the number alone.

Entry CC1(C)S[C@@H]2[C@H](NC(=O)[C@@H](c3ccc(O)cc3)N(C3CCCCO3)C3CCCCO3)C(=O)N2[C@H]1C(=O)O (relative stereo) [Compound II, sodium salt] has what remaining at 6 h?
97

----------
# METHOD_DESCRIPTION: Stability in aqueous solution (percent retention)
# Assay type: physicochemical
# ASSAY_SETUP: 0.9% saline, 2.30 mg/ml, RT, 48 hrs
Where a name gives a salt, the structure may show the parent alone.
REPORTED_METRIC: remaining at 48 h (%)
Express the result in % but write the number alone.

Entry CC1(C)S[C@@H]2[C@H](NC(=O)[C@@H](c3ccc(O)cc3)N(C3CCCCO3)C3CCCCO3)C(=O)N2[C@H]1C(=O)O (relative stereo) [Compound II, sodium salt] has what remaining at 48 h?
84
